- Measurement protocol: Quantitative High-Throughput drug screen in 47 multiple myeloma cell lines against the NCATS MIPE library collection: H1112_PLB cell viability assay (AID 1918967; further: nearly all actives have a fitted effect of over 30% in size)
- Assay conditions: H1112 myeloma cells viability, ATP luminescence, 48 h; series mostly up to 45.8 µM
Inconclusive results are not listed. Activity calls are given as the source filed them. The call rests on the fitted dose curve; in most records, active means well fitted cell-killing curve with a large enough effect; inconclusive means small, poorly fitted or top-dose-only effect, or effect the other way; inactive means no such curve, though single readings can be large or run the other way.
Labels: Yes (active), No (inactive)

Compound | Label value
Cc1nc2ccc(CN(C)c3ccc(C(=O)N[C@@H](CCC(=O)O)C(=O)O)s3)cc2c(=O)[nH]1 | No
C[C@@]12O[C@@H](C[C@]1(O)CO)n1c3ccccc3c3c4c(c5c6ccccc6n2c5c31)CNC4=O | Yes
Cc1coc2c1C(=O)C(=O)c1c-2ccc2c1CCCC2(C)C | Yes
COc1ccc(-c2cc3c(C)nc(N)nc3n(C3CCC(OCCO)CC3)c2=O)cn1 (stereo not given) | Yes
Cc1cc(Nc2cc(NC(=O)c3c(Cl)cccc3Cl)ccn2)nc(N)n1 | Yes
Cc1nc2cnc3ccc(C#Cc4cccnc4)cc3c2n1-c1ccc(C(C)(C)C#N)cc1 | Yes
O=c1[nH]nc(Sc2ncc([N+](=O)[O-])s2)n1-c1ccc2c(c1)OCCO2 | Yes
COc1cc(OC2CCN(C)CC2)ccc1Nc1ncc2c(n1)n(C1CCCC1)c(=O)n2C | Yes
Clc1ccc2ncc(-c3cccc(NC4CNC4)n3)n2c1 | Yes
CN(c1ncccc1CNc1nc(Nc2ccc3c(c2)CC(=O)N3)ncc1C(F)(F)F)S(C)(=O)=O | Yes
